# Test system: 556581-035-R-J1-PDC spheroids with HUVEC/MSC, viability;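 further: spheroids exposed to compounds for 7 days before readout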
# assay-details: Anticancer human tumor 556581-035-R-J1-PDC patient-derived ovarian carcinoma cell line growth inhibition [IpAb]
# details: curve of first compound; second compound 10 µM
# Description: Combinatorial screen of targeted agents with ipatasertib and abemaciclib in multi-cell type tumor spheroids […] Compounds. […] If the clinical Cmax for an agent had not been determined, the highest concentration tested was 10 microM. NCI60 Cell Culture. […] The optimal seeding densities for each of the cell lines at each time point assessed were determined prior to performing the concentration response studies. […]
parameter-measured: IC50

// worked examples, IC50 included
Cc1nc(NC(=O)N2CCCC2C(N)=O)sc1-c1ccnc(C(C)(C)C(F)(F)F)c1 (stereo not drawn) + CC(C)NCC(C(=O)N1CCN(c2ncnc3c2C(C)CC3O)CC1)c1ccc(Cl)cc1 | < 31.6 nM
Cn1cnc2c(F)c(Nc3ccc(Br)cc3Cl)c(C(=O)NOCCO)cc21 + CC(C)NCC(C(=O)N1CCN(c2ncnc3c2C(C)CC3O)CC1)c1ccc(Cl)cc1 | < 9.49 nM

Here is the next item to consider.
// Input: CC(C)(C)c1cnc(CSc2cnc(NC(=O)C3CCNCC3)s2)o1 + CC(C)NCC(C(=O)N1CCN(c2ncnc3c2C(C)CC3O)CC1)c1ccc(Cl)cc1 . Output its IC50 only. < 9.49 nM
